Target: T1, cynomolgus ROR1 on CHO-K1-cynoROR1 cells (cynomolgus monkey, UniProt A0A2K5WTX7 30-937)
T1 construct: whole, on cells
Test: flow cytometry on CHOK1-cynoROR1 cells, MFI (APC-A Median) [top panel]
Listed here are binders together with their documented EC50 (read off the curve).

Q. Requested field: EC50 (read off the curve). Item: PR005347 (antibody, human IgG1, V domains shown, HCAb (heavy chain-only, human IgG1 Fc), no light chain) VH: EVQLVESGGGLVKPGGSLRLSCVTSGFTFSDYYMSWIRQAPGKGMEWISYISTTGSTKNYANSVKGRFTISRDNAKSSLYLQMNSLRAEDTAAYYCARVPPSNASWYEDFDYWGQGTLVTVSS
A. ~10 nM

Q. Requested field: EC50 (read off the curve). Item: PR005343 (antibody, human IgG1, V domains shown, HCAb (heavy chain-only, human IgG1 Fc), no light chain) VH: EVQLVESGGGLVKPGGSLRLSCVASGFTFSDYYMSWIRQAPGKGMEWISYISSSGSTKNYANSVKGRFTISRDNAKNSLYLQMNSLRAEDTAAYYCARVPPYNASWYEDFDYWGQGTLVTVSS
A. ~4 nM

Q. Requested field: EC50 (read off the curve). Item: PR000374 (antibody, human IgG1, kappa, V domains shown, positive control; also called Bench marker 1) VH: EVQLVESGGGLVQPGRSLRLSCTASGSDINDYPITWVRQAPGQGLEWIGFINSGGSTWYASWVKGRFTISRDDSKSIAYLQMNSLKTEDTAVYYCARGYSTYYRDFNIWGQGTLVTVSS VL: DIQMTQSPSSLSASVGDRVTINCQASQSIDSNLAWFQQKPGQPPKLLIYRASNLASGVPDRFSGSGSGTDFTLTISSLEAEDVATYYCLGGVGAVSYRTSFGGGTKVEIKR
A. ~5 nM

Q. Requested field: EC50 (read off the curve). Item: PR005342 (antibody, human IgG1, V domains shown, HCAb (heavy chain-only, human IgG1 Fc), no light chain) VH: EVQLVESGGGLVKPGGSLRLSCAASGFNFSDYYMSWIRQAPGKGLEWISYISNSSSTIYYADSVKGRFTISRDNAKNSLYLQMSRLRAEDTAMYYCARDTTNGWYEDFDYWGQGTLVTVSS
A. ~7 nM
